Reference for the values: patent US20250186627A1

Reported Biodistribution: Adrenal gland values are given for each entry in this list.
System: NRG-mice bearing LNCaP tumors
Method Notes: Biodistribution (and PET/SPECT imaging) in NRG-mice bearing LNCaP tumors
Assay type: in vivo
Run Conditions: 72 h p.i., Avg
*1 amine or outer side, *2 acyl side, *3 side chain or, on linkers, in order; H or OH if unused. Where a SMILES comes first, the peptide text is derived from it. [ ]: non-standard residue; d: D form. The star is where a group is joined. ξ: configuration not given here. ξLys(Nα-CO-ξAad) = O=C(O)CCCC(NC(=O)NC(CCCCN*)C(=O)O)C(=O)O; Butanoyl(4-(4-NO2Ph)) = O=C(CCCc1ccc([N+](=O)[O-])cc1)*; DOTA = O=C(O)CN1CCN(CC(=O)O)CCN(CC(=O)*)CCN(CC(=O)O)CC1; Butanoyl(4-(4-MeO-phenyl)) = COc1ccc(CCCC(=O)*)cc1; ξAla(9-anthryl) = NC(Cc1c2ccccc2cc2ccccc12)C(=O)O; X2 = O=C(NC(CCCCN*)C(=O)O)NC(CC(F)C(=O)O)C(=O)O; X1 = O=C(C1CCC(CN[*:1])CC1)[*:2]; ξK = NCCCCC(N)C(=O)O
Put down the number, then write its unit next to it.

1) COc1ccc(CCCC(=O)NCC(=O)NC(CCCCNC(=O)CN2CCN(CC(=O)[O-])CCN(CC(=O)[O-])CCN(CC(=O)[O-])CC2)C(=O)NCC(=O)NCC2CCC(C(=O)NC(Cc3c4ccccc4cc4ccccc34)C(=O)NCCCCC(NC(=O)NC(CC(F)C(=O)O)C(=O)O)C(=O)O)CC2)cc1.[177Lu+3] (stereo not shown) [^177Lu-CCZ02008] ({Butanoyl(4-(4-MeO-phenyl))}-G[ξK](DOTA)G[X1][ξAla(9-anthryl)]-X2) :: 2.59 % ID/g
2) O=C([O-])CN1CCN(CC(=O)[O-])CCN(CC(=O)NCCCCC(NC(=O)CNC(=O)CCCc2ccc([N+](=O)[O-])cc2)C(=O)NCC(=O)NCC2CCC(C(=O)NC(Cc3c4ccccc4cc4ccccc34)C(=O)NCCCCC(NC(=O)NC(CCCC(=O)O)C(=O)O)C(=O)O)CC2)CCN(CC(=O)[O-])CC1.[177Lu+3] (stereo not shown) [^177Lu-CCZ02017] ({Butanoyl(4-(4-NO2Ph))}-G[ξK](DOTA)G[X1][ξAla(9-anthryl)]-{ξLys(Nα-CO-ξAad)}) :: 0.34 % ID/g

Please report the measured Biodistribution: Adrenal gland for O=C([O-])CN1CCN(CC(=O)[O-])CCN(CC(=O)NCCCCC(NC(=O)CNC(=O)CCCc2ccc([N+](=O)[O-])cc2)C(=O)NCC(=O)NCC2CCC(C(=O)NC(Cc3c4ccccc4cc4ccccc34)C(=O)NCCCCC(NC(=O)NC(CCCC(=O)O)C(=O)O)C(=O)O)CC2)CCN(CC(=O)[O-])CC1.[225Ac+3] (stereo not shown) [^225Ac-CCZ02017] ({Butanoyl(4-(4-NO2Ph))}-G[ξK](DOTA)G[X1][ξAla(9-anthryl)]-{ξLys(Nα-CO-ξAad)}) 24.11 % ID/g

Give reported Biodistribution: Adrenal gland value for COc1ccc(CCCC(=O)NCC(=O)NC(CCCCNC(=O)CN2CCN(CC(=O)[O-])CCN(CC(=O)[O-])CCN(CC(=O)[O-])CC2)CC(=O)NCC2CCC(C(=O)NC(Cc3c4ccccc4cc4ccccc34)C(=O)NCCCCC(NC(=O)NC(CC(F)C(=O)O)C(=O)O)C(=O)O)CC2)cc1.[177Lu+3] (stereo not shown) [^177Lu-CCZ02019] 0.53 % ID/g
